TEST_TARGET: TRAILR2 receptor on the surface of human tumor cells (human, UniProt O14763 56-440)
ASSAY_EXPLANATION: cell-based or functional assay
Here the recorded IC50, cytotoxic effect on Mia PaCa-2 cells (CellTiter-Glo, 72 h) is given for each entry.
Don't forget the unit after the value.

Zapadcine-3a (antibody, V domains shown, MMAE coupled through linker PY-VC-PAB by thiol bridge coupling, cleavable; positions not given) VH: QVQLVQSGSELKKPGASVKVSCKASGYTFTDFSMNWVRQAPGQGLEWMGWINTETGEPTYADDFKGRFVFSLDTSVSTAYLQISSLKAEDTAVYYCARIDYWGQGTTVTVSS VL: DIVMTQSPLSLPVTPGEPASISCRSSQSLVHSNGNTYLHWYLQKPGQSPQLLIYKVSNRFSGVPDRFSGSGSGTDFTLKISRVEAEDVGVYYCFQSTHVPHTFGQGTKLEIKR = 0.097 µg/mL

# return recorded IC50, cytotoxic effect on Mia PaCa-2 cells (CellTiter-Glo, 72 h) for input Zapadcine-3d (antibody, V domains shown, MMAE coupled through linker MC by thiol conventional coupling, non-cleavable; positions not given) VH: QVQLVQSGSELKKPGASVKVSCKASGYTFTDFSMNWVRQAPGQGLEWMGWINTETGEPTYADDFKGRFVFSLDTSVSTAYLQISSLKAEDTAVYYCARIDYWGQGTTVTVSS VL: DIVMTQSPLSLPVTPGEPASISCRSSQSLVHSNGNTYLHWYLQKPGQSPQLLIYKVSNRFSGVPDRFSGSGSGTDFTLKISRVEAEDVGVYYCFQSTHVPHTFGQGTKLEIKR
0.139 µg/mL

Provide IC50, cytotoxic effect on Mia PaCa-2 cells (CellTiter-Glo, 72 h) value for the following binder: Zapadcine-3e (antibody, V domains shown, MMAF coupled through linker MC by thiol conventional coupling, non-cleavable; positions not given) VH: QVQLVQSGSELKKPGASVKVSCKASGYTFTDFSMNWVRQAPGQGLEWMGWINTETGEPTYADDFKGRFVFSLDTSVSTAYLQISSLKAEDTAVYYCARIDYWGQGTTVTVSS VL: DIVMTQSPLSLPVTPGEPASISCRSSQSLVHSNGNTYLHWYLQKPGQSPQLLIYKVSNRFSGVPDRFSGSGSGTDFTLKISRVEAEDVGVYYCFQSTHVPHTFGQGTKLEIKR
0.951 µg/mL
